What Peak area as % of total area of all glycoforms, 14,419 was measured for each of the following?
# Test system: lysozyme
# Assay remarks: ESI-MS of lysozyme glycoforms after incubation with D-ribose
# Assay context: lysozyme + D-ribose − 2H2O (14,419 Da); 37° C., 5 days
Respond numerically; units are % and should not be typed.

GET /values?readout=Peak area as % of total area of all glycoforms, 14,419&item= NC(=O)N/N=C/c1ccc([N+](=O)[O-])o1 [Nitrofurazone] 5.8

Please report the recorded Peak area as % of total area of all glycoforms, 14,419 for Oc1c(Br)cc(Br)c2cccnc12 [Broxyquinoline] . 7.2

Need Peak area as % of total area of all glycoforms, 14,419 of Cc1cc(-c2ccc(/N=N/c3c(S(=O)(=O)O)cc4cc(S(=O)(=O)O)cc(N)c4c3O)c(C)c2)ccc1/N=N/c1c(S(=O)(=O)O)cc2cc(S(=O)(=O)O)cc(N)c2c1O [Trypan blue] , thanks. 5.6

Any idea what its Peak area as % of total area of all glycoforms, 14,419 is? The compound is Cc1ncc([N+](=O)[O-])n1CC(O)CCl (stereo not shown) [Ornidazole] 6.7

====

# Test system: lysozyme
# Assay remarks: ESI-MS of lysozyme glycoforms after incubation with D-ribose
# Assay context: lysozyme + D-ribose − 3H2O (14,401 Da); 37° C., 5 days
Quantity kind: Peak area as % of total area of all glycoforms, 14,401 (%)
Entry rule: numbers only, all in %.

Field request: Peak area as % of total area of all glycoforms, 14,401 | item: Oc1ccc(CC2NCCc3cc(O)c(O)cc32)cc1O (racemic) [(±)-Tetrahydropapaveroline] 2.1

Name the recorded Peak area as % of total area of all glycoforms, 14,401 for CNC[C@H](O)c1ccc(O)c(O)c1 [L-Epinephrine] . 0.8

Entry "O=c1c(O)c(-c2ccccc2)oc2cc(O)cc(O)c12" : reported Peak area as % of total area of all glycoforms, 14,401 = ? 0.8

Suppose we examine the compound CCCOC(=O)c1cc(O)c(O)c(O)c1 [Propyl gallate] ; what Peak area as % of total area of all glycoforms, 14,401 value has been reported? 0.0

Return reported Peak area as % of total area of all glycoforms, 14,401; argument: C[C@@](Cc1ccc(O)c(O)c1)(NN)C(=O)O [S(−)-Carbidopa] 2.0

====

# System: lysozyme
# Assay remarks: ESI-MS of lysozyme glycoforms after incubation with D-ribose
# Assay context: lysozyme + D-ribose − 3H2O (14,401 Da); 37° C., 5 days
So I've got a bunch of compounds here, and I need their Peak area as % of total area of all glycoforms, 14,401 values.
Just the number in %, nothing appended.

# Peak area as % of total area of all glycoforms, 14,401 lookup, item O=c1cc(-c2ccc(O)c(O)c2)oc2c(O)c(O)ccc12 [7,8,3′,4′-Tetrahydroxyflavone] 0.0

Would you kindly share the measured Peak area as % of total area of all glycoforms, 14,401 for O=C1OC(CN2CCOCC2)CN1/N=C/c1ccc([N+](=O)[O-])o1 (centres unmarked) [Furaltadone] ? 0.0

So what's the measured Peak area as % of total area of all glycoforms, 14,401 for this one? CC(C)NC[C@H](O)c1ccc(O)c(O)c1 [L-Isoproterenol] 2.5

Quick one: Peak area as % of total area of all glycoforms, 14,401 for O=C1C=C(O)C(=O)c2ccccc21 [Lawsone] ? 0.0

Item CCC(NC(C)C)C(O)c1ccc(O)c(O)c1 (centres unmarked) [Isoetharine] has what recorded Peak area as % of total area of all glycoforms, 14,401? 1.3

====

# Tested on: bovine serum albumin (BSA)
# Assay remarks: Fluorescamine assay of free primary amino groups of BSA incubated with D-ribose
# Type: biochemical
# Assay context: free primary amino group on BSA after 5 days at 37° C.; agent at 16.8 times IC50; 64% without agent
# Method: Fluorescamine assay (Yeboah F. et al., J. Agric. Food Chem. 48, 2766-2774 (2000)) was performed on incubated mixtures of BSA and D-ribose, with or without the identified anti-glycation agents. The mixtures contained BSA (0.075 mM protein concentration or 4.53 mM of Lys residue concentration) and D-ribose (50 mM). […] The fluorescamine assay determines the number of free lysine residues of BSA. […] The protein content was determined using the Bio-Rad protein determination reagent (Bradford method). […]
Quantity kind: Unreacted amino group (%)
Write the number in % without appending the unit.

Quick one: Unreacted amino group for "CN(C)[C@@H]1C(O)=C(C(N)=O)C(=O)[C@@]2(O)C(O)=C3C(=O)c4c(O)ccc(Cl)c4[C@@H](O)[C@H]3C[C@@H]12" ? 69

Returns the measured Unreacted amino group for the input compound. Input: "O=c1c(O)c(-c2ccccc2)oc2cc(O)cc(O)c12" 64

GET /values?readout=Unreacted amino group&item= "O=c1oc2c(O)c(O)cc3c(=O)oc4c(O)c(O)cc1c4c23" 52

Reported Unreacted amino group, compound O=c1cc(-c2ccccc2O)oc2cc(O)cc(O)c12 [5,7,2′-Trihydroxyflavone] : ____ 53

====

# Test system: bovine serum albumin (BSA)
# Assay remarks: Fluorescamine assay of free primary amino groups of BSA incubated with D-ribose
# Format: biochemical
# Assay context: free primary amino group on BSA after 5 days at 37° C.; agent at 16.8 times IC50; 64% without agent
Quantity kind: Unreacted amino group (%)
Write it as a number; the unit % goes unstated.

Would you mind telling me what Unreacted amino group value was observed for Oc1cccc2cccnc12 [8-Hydroxyquinoline] ? 55

Could you share which Unreacted amino group value was measured for Cc1ncc([N+](=O)[O-])n1CC(O)CCl (stereo not shown) ? 60

Which measured Unreacted amino group value corresponds to "O=C1C=C(O)C(=O)c2ccccc21" ? 44

Could you tell me which Unreacted amino group is on file for O=C(O[C@@H]1Cc2c(O)cc(O)cc2O[C@@H]1c1cc(O)c(O)c(O)c1)c1cc(O)c(O)c(O)c1 [(−)-Epigallocatechin gallate] ? 58

For the molecule shown here, "O=[N+]([O-])c1ccc(O)c2ncccc12" , give the reported Unreacted amino group. 76

If you can, please state the reported Unreacted amino group value of Oc1ccc(CC2NCCc3cc(O)c(O)cc32)cc1O (racemic) [(±)-Tetrahydropapaveroline] . 51

Given C[C@@](Cc1ccc(O)c(O)c1)(NN)C(=O)O [S(−)-Carbidopa] , state its recorded Unreacted amino group. 89

Record request: Unreacted amino group value, item CS(=O)(=O)Nc1ccc([N+](=O)[O-])cc1Oc1ccccc1 [Nimesulide] 69

Unreacted amino group lookup needed for "NCCc1ccc(O)c(O)c1" , thanks. 60

Report Unreacted amino group for O=c1cc(-c2cc(O)c(O)c(O)c2)oc2cc(O)cc(O)c12 [5,7,3′,4′,5′-Pentahydroxyflavone] please. 54

====

# Test system: lysozyme
# Assay remarks: ESI-MS of lysozyme glycoforms after incubation with D-ribose;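 further: lysozyme incubated with D-ribose, with or without anti-glycation agents, then separated by reversed-phase HPLC and analysed by electrospray mass spectrometry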
# Assay context: lysozyme + D-ribose − 3H2O (14,401 Da); 37° C., 5 days
Please go through the items and note down their Peak area as % of total area of all glycoforms, 14,401.
Numeric only. Scale: %

Entry Oc1cc(O)c2c(c1)O[C@H](c1ccc(O)c(O)c1)[C@@H](O)C2 [(+)-Catechin] : reported Peak area as % of total area of all glycoforms, 14,401 = ? 0.0

Given O=C(O)c1cc(/N=N/c2ccc(S(=O)(=O)Nc3ccccn3)cc2)ccc1O [Sulfasalazine] , state its recorded Peak area as % of total area of all glycoforms, 14,401. 2.7

Fill in: Peak area as % of total area of all glycoforms, 14,401 of O=C1c2c(O)ccc(O)c2C(=O)c2c(NCCNCCO)ccc(NCCNCCO)c21 [Mitoxantrone] is ___ 1.9

Entry CS(=O)(=O)Nc1ccc([N+](=O)[O-])cc1Oc1ccccc1 [Nimesulide] has what Peak area as % of total area of all glycoforms, 14,401? 0.0

Dear colleague, I am looking for the recorded Peak area as % of total area of all glycoforms, 14,401 of the following compound: Cc1c(C(N)=O)cc([N+](=O)[O-])cc1[N+](=O)[O-] [Dinitolmide] 0.0

Given the compound CC(C)NC[C@@H](O)c1ccc(O)c(O)c1 [D-Isoproterenol] , what is its reported Peak area as % of total area of all glycoforms, 14,401? 0.8

Fill blank: measured Peak area as % of total area of all glycoforms, 14,401 of the compound COc1ccc2c(c1)c(CC(=O)O)c(C)n2C(=O)c1ccc(Cl)cc1 [Indomethacin] is ____. 0.5

I have this compound here, N[C@@H](Cc1ccc(O)c(O)c1)C(=O)O [L-DOPA] , and I need its recorded Peak area as % of total area of all glycoforms, 14,401. 1.8

Endpoint output: Peak area as % of total area of all glycoforms, 14,401 of Nc1ncc([N+](=O)[O-])cn1 [2-Amino-5-nitropyrimidine] . Value? 0.0

Data request, read-out Peak area as % of total area of all glycoforms, 14,401, for O=C(O[C@@H]1Cc2c(O)cc(O)cc2O[C@@H]1c1cc(O)c(O)c(O)c1)c1cc(O)c(O)c(O)c1 [(−)-Epigallocatechin gallate] 0.0

Entry CN(C)[C@@H]1C(O)=C(C(N)=O)C(=O)[C@@]2(O)C(O)=C3C(=O)c4c(O)ccc(Cl)c4[C@@H](O)[C@H]3C[C@@H]12 [Demeclocycline] has what Peak area as % of total area of all glycoforms, 14,401? 1.9

So what does the record say about Peak area as % of total area of all glycoforms, 14,401 for O=[N+]([O-])c1ccc(O)c2ncccc12 [Nitroxoline] ? 3.3

Which Peak area as % of total area of all glycoforms, 14,401 value is on record for O=c1cc(-c2ccccc2)oc2cc(O)c(O)c(O)c12 [Baicalein] ? 0.0

Query (compound): Oc1cc(O)c2c(c1)O[C@H](c1ccc(O)c(O)c1)[C@H](O)C2 [(−)-Epicatechin] ; field requested: Peak area as % of total area of all glycoforms, 14,401 0.0

May I ask what Peak area as % of total area of all glycoforms, 14,401 has been recorded for O=c1cc(-c2ccc(O)c(O)c2)oc2cc(O)cc(O)c12 [Luteolin] ? 2.1

Entry C[C@](N)(Cc1ccc(O)c(O)c1)C(=O)O [L-α-Methyl-DOPA] : reported Peak area as % of total area of all glycoforms, 14,401 = ? 2.1

What value of measured Peak area as % of total area of all glycoforms, 14,401 is listed for Oc1c(Br)cc(Br)c2cccnc12 [Broxyquinoline] ? 4.9

Any idea what its Peak area as % of total area of all glycoforms, 14,401 is? The compound is O=[N+]([O-])c1cc([As](=O)(O)O)ccc1O [Roxarsone] 0.0
